Biological target: SMN2 pre-mRNA
Experiment: Modulation of SMN2 mRNA FL splicing in spinal muscular atrophy patient fibroblasts
Assay type: tissue-based, Homo sapiens
Details: fibroblast
endpoint name: EC50 (nM)
One number for each entry, in nM.

Please review the entries below; each comes with its answer.
Log: SMN2 pre-mRNA, compound COC[C@]12CC[C@H](C[C@@H](N(C)c3ccc(-c4cc(F)c(-n5ccnc5)cc4O)nn3)C1)N2 , EC50 = 0.01

Log: SMN2 pre-mRNA, compound CN(c1ccc(-c2ccc(-c3cnn(C)c3)cc2O)nn1)[C@H]1C[C@@H]2CC[C@@](C)(N2)[C@H]1F , EC50 = 0.01

Log: SMN2 pre-mRNA, compound C[C@@]12CC[C@@H](C[C@H](Oc3ccc(-c4ccc(-n5ccnc5)cc4O)nn3)C1)N2 , EC50 = 16

Log: SMN2 pre-mRNA, compound C[C@@]12CC[C@@H](C[C@H](Oc3ccc(-c4ccc(-c5cn[nH]c5)cc4O)nn3)C1)N2 , EC50 = 0.01

Log: SMN2 pre-mRNA, compound C[C@]12CC[C@H](C[C@@H](Oc3ccc(-c4ccc(-c5cn[nH]c5)cc4O)nn3)C1)N2 , EC50 = 16

Next compound, EC50 to be filled in.
Log: SMN2 pre-mRNA, compound COC[C@@]12CC[C@@H](C[C@H](N(C)c3ccc(-c4cc(F)c(-n5ccnc5)cc4O)nn3)C1)N2 , EC50 = 0.01
